System: SK-MEL-2 melanoma
Experiment: NCI-60 one-dose screen, 48 h (100 = growth as untreated, 0 = no growth, -100 = all killed)
Details: 10 µM unless noted
This is part of a sample that, as a whole, favours compounds with a hit. Of some 83,000 tested, about 20% had one in any assay.
Entries are grouped by growth into these classes: interval 1 = under 10%, interval 2 = from 10% up to 90%, interval 3 = 90% and over

Task: Categorize the following entry: `Cc1c(Nc2nnc(SCC(=O)Nc3sc4c(c3C#N)CCCC4)s2)c(=O)n(-c2ccccc2)n1C`
Output: interval 3

Task: Categorize the following entry: `N/C(=N\c1nc2c(Cl)cc(Cl)cc2s1)C(Cl)(Cl)Cl`
Output: interval 2

Task: Categorize the following entry: `Cc1cc2nc3c4cc(Cl)ccc4n(CC(=O)NCCN(C)C)c3nc2cc1C`
Output: interval 3

Task: Categorize the following entry: `COc1ccc(-c2nc3ccc(-c4nnc(SCC(=O)Nc5ccc(C(C)=O)cc5)o4)cc3[nH]2)cc1`
Output: interval 3

Task: Categorize the following entry: `CN(C)CCCOc1c2ccccc2nc2c1oc1ccc(Cl)cc12`
Output: interval 1

Task: Categorize the following entry: `CCOc1ccc2nc(NC(=O)c3ccc(C(F)(F)F)cc3)sc2c1`
Output: interval 3

Task: Categorize the following entry: `Cc1nc2cnc(N)c(C#Cc3cncc(C(=O)Nc4ccc(Cl)c(C(F)(F)F)c4)c3)c2nc1C`
Output: interval 2

Task: Categorize the following entry: `COc1cc(/C=C/C(=O)c2ccc(C)cc2)ccc1Oc1nc(NCCO)nc(N2CCOCC2)n1`
Output: interval 3
